tested system: ΔF508-CFTR (Homo sapiens, UniProt P13569, DEL508-508)
Construct: host or cells: CFBE41o-, doxycycline-inducible
Sequence (P13569 with tags, fused parts or gaps DEL508-508): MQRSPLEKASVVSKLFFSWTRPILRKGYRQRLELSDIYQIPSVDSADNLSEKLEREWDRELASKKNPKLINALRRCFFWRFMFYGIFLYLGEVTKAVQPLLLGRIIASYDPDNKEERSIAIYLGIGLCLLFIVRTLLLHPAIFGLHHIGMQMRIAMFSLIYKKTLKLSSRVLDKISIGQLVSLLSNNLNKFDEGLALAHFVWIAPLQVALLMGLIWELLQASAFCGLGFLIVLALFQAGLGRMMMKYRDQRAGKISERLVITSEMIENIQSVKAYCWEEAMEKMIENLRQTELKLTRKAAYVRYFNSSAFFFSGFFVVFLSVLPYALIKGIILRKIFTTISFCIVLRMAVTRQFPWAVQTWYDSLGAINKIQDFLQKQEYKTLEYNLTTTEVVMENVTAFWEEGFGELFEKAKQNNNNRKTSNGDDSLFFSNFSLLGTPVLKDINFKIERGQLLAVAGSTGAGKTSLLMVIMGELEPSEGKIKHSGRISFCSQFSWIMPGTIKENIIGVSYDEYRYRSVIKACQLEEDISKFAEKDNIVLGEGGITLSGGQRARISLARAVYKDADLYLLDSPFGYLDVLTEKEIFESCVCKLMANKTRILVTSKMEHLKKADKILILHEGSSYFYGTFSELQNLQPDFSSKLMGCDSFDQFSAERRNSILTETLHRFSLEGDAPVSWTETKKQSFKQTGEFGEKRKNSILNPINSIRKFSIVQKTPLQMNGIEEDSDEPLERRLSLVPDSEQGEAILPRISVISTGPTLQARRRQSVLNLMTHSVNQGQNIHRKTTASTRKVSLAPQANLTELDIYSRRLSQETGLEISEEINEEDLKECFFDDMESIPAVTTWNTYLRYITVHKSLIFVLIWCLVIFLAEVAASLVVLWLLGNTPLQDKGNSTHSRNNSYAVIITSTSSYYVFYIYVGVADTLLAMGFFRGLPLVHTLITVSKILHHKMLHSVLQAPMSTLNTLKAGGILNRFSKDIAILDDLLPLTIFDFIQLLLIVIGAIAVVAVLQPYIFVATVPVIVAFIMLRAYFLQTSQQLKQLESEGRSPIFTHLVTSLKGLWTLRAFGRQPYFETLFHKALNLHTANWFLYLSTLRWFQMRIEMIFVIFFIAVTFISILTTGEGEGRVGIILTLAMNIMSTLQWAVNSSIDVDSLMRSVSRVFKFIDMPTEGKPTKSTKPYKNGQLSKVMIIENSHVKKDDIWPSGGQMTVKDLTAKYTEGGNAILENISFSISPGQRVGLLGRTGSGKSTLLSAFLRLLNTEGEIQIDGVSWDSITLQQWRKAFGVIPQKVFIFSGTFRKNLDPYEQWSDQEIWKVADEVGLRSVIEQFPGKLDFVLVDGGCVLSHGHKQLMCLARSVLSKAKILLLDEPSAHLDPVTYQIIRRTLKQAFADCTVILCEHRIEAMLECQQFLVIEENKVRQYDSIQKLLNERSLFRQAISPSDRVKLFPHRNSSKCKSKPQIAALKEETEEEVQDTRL
assay summary: CFTR cell surface levels using HRP-tagged ΔF508-CFTR expressing CFBE cells, in the presence of a co-corrector
Type: cell-based
test context: HRP-tagged ΔF508-CFTR CFBE cells, in the presence of 3 μM co-corrector; read-out: EC50
# EC50 per record follows
Write the number in µM without appending the unit.

>  <test smiles>
CC(C)c1nn(-c2cccc(N(C)C)c2)c2nc(C(=O)NS(C)(=O)=O)cc(-c3ccc(N4CCC(C#N)CC4)cc3)c12

>  <readout units>
µM

>  <EC50>
0.253

$$$$
>  <test smiles>
CCS(=O)(=O)NC(=O)c1cc(-c2ccc(N3CCOCC3)nc2)c2c(C(C)C)nn(-c3ccccc3)c2n1

>  <readout units>
µM

>  <EC50>
0.348

$$$$
>  <test smiles>
COC1CCN(c2cc(C(=O)NS(=O)(=O)C3CCN(C(=O)OCc4ccccc4)CC3)nc3c2c(C2CCC2)nn3-c2ccccc2)CC1

>  <readout units>
µM

>  <EC50>
0.364

$$$$

Here's the next entry for you.
// EC50 value for "CC(C)c1nn(C2CCCC2)c2nc(C(=O)NS(C)(=O)=O)cc(-c3ccc(N(C)C)nc3)c12" : 1.05
